Molecular target: human Phosphodiesterase 5 (PDE5), PDE5A (gene 8654)
Test: NVS_ENZ_hPDE5: NovaScreen (NVS) Enzymatic Assay for human Phosphodiesterase 5 (PDE5) (AID 2283194)
Inconclusive results are not listed. Active and inactive are the calls of the source. How the source made its calls: active means hit-call score of the fitted dose curve at least 0.9, where 1 is the maximum; inconclusive means response in the unintended direction; inactive means score below 0.9.
Outcomes: true (1) for active, false (0) for inactive

{"INPUT SMILES": "CN(C)c1ccc(C(=O)c2ccc(N(C)C)cc2)cc1", "CATEGORY LABEL": "true (1)"}
{"INPUT SMILES": "C[C@]12C=CC3=C4CCC(=O)C=C4CC[C@H]3[C@@H]1CC[C@@H]2O", "CATEGORY LABEL": "true (1)"}
{"INPUT SMILES": "CCNS(=O)(=O)C(F)(F)C(F)(F)C(F)(F)C(F)(F)C(F)(F)C(F)(F)C(F)(F)C(F)(F)F", "CATEGORY LABEL": "false (0)"}
{"INPUT SMILES": "CCN(CC)N=O", "CATEGORY LABEL": "false (0)"}
